- protocol: soluble fraction after stress (log2 fold change); higher = more stays soluble; pooled small domains, quantitative proteomics
- study.conditions: stress: 50 degC
# label = rule met if soluble fraction (log2) >= -0.06 else rule not met

>>> df
                                 seq_string      category
0  HMDITGIGIKKRIKAIIDSEDKKNPLSDTQIVEILKNEGLEISRRTVAKYRSDLQIPSSSKRKK      rule met
1  HMSTPLPTGLPRGTIIEYTVQTDETLAIIAAKFNSTVDDIMTRNKITDPNTIYAGQILKVAINLVTP      rule met
2  HMPMTDYQLIRSNRRTIALQITRDARVVVRAPLYASEADIRRFVESHRAWIESHLDRQRARTD  rule not met
3  HMISQATMEKMGLTNRERQLVDFIVRGASNQEISEKMFISINTVKIHVSNIFRKAGVRSRTELMDKYP  rule not met
4  HMTPKVTVPDVTGQTFSSAKQILESLGFTVKQQGSTDETDQVIDQNPTSGEADKGATITLTTKSS      rule met
5  HMSDRESYGRYRNVSLTLSEYESLKNEYPLYADKYIERLSEYMETAGKHYNNHYATILSWLSKDIK  rule not met
6  HMDTIVHFLSDGRRITVRIKRNARKNIILRPMAADAVSATIPPWLGRRQLSAWLSEREDLLLSVLSRAA  rule not met
7  HMKSYAQIAEILSGQQPNTSRKEGSNLAVHADWIDALIAKYGTALRPEEANEVVKKEIGIVFSHVLEN  rule not met

###

- protocol: soluble fraction after stress (log2 fold change); higher = more stays soluble; pooled small domains, quantitative proteomics
- study.conditions: stress: 50 degC
Catalogue of soluble fraction (log2) readings, one per entry.
parameter.measured: soluble fraction (log2)

>>> df
                                 seq_string  modifier_sign  quantitative_readout
0  HMQGQVLQETARKARSQLDSEIPGFNDALYQNLIKSSENYGYKAEEVAQWVDPRAIKVLNDAYQFQQLKAG              =               -0.0765
1  HMRKSAVSSTLTSIEGIGATRAKALLKHFKTVAAVSEADLKELEDAPGMTRPSALRVYEYFHGK              =                -0.165
2  HMSDPSRKADFIAALSSLGGSAGNGKLREQLGWDEPTYDAVKQTLLDEGAITNGRGRGGSVALAG              ≥                  0.62
3  HMAPGSKAEIPEDLMKVINKDPKMKAFVATLNKANIMAISFRLSTAKKPETRERRFNLILETLKRGEKF              =                 -3.18
4  HMDTRQFWEQWVADEIRTFEHKDRKQLFGWFEGNKPKLGQMKKLGYGDLLTKVQTSWDEIYQQKE              =                 0.124
5  HMELPVAVPHTELSPEALRGVVESFVLREGTDYGERDVPFEAKVAQVIRQLERGEARIMFDPVTQSVQIVT              =                 0.102
6  HMPKDLEKRAAILAAAKHLFPVHGFEGTSMDAIAALANVSKLTVYSHFKDKESLFTEAIREK              =                -0.087
7  HMDYVKTLGETINVRVAASTDADIYKLLPGGEILNRVGYNEEWTKVMVDGSTFYVYSEYVIQTEPPA              =                 -1.37
